Reference for the values: paper PMC11325505

Tested on: tumor necrosis factor (TNF-α) production by RAW 264.7 stimulated by LPS
Assay: Anti-inflammatory activity: TNF-α production by LPS-stimulated macrophages
Assay type: cell-based, Murine
Conditions: Mus musculus, RAW264.7; LPS-stimulated RAW 264.7; average of four repetitions ± SEM; read-out: TNFα production IC50
I'd be grateful if you could share measured IC50 for these entries.

Respond only with IC50 recorded for `O=c1c(O)c(-c2ccc(O)c(O)c2)oc2c(Nc3ccc(F)cc3)c(O)cc(O)c12`
> 50 µM

Tell me its IC50 given `O=c1cc(-c2ccc(O)c(O)c2)oc2c(Nc3ccc(C(F)(F)F)cc3)c(O)cc(O)c12` as the entry.
> 25 µM

Report measured IC50; entry is `COc1ccc(Nc2c(O)cc(O)c3c(=O)c(O)c(-c4ccc(O)c(O)c4)oc23)cc1`
> 50 µM

Read off the recorded IC50 for `COc1ccc(Nc2c(O)cc(O)c3c(=O)cc(-c4ccc(O)c(O)c4)oc23)cc1`
> 50 µM

Output IC50 of `O=c1cc(-c2ccc(O)c(O)c2)oc2c(Nc3cccc(F)c3)c(O)cc(O)c12`
> 25 µM

For O=c1cc(-c2ccc(O)c(O)c2)oc2cc(O)cc(O)c12 [compound 10, luteolin, reference compound] , write its IC50.
25.9 µM

Report IC50 for `O=c1c(O)c(-c2ccc(O)c(O)c2)oc2c(Nc3ccc(C(F)(F)F)cc3)c(O)cc(O)c12`
> 50 µM

Supply reported IC50 belonging to this compound: `COc1cc(Nc2c(O)cc(O)c3c(=O)c(O)c(-c4ccc(O)c(O)c4)oc23)cc(OC)c1`
> 50 µM

Specify measured IC50 for `O=c1cc(-c2ccc(O)c(O)c2)oc2c(Nc3ccc(F)cc3)c(O)cc(O)c12` .
28.4 µM

Give recorded IC50. O=c1c(O)c(-c2ccc(O)c(O)c2)oc2cc(O)cc(O)c12 [compound 4, quercetin, reference compound]
55.1 µM

Give the reported IC50 for this compound. `O=c1c(O)c(-c2ccc(O)c(O)c2)oc2c(Nc3ccccc3)c(O)cc(O)c12`
> 100 µM

Fill in reported IC50 for this entry: `O=c1cc(-c2ccc(O)c(O)c2)oc2c(Nc3ccccc3)c(O)cc(O)c12`
> 25 µM
